Where do these numbers come from? They come from paper PMC3726336.

# assaySystem: CtCel7A (Chaetomium thermophilum)
# Sequence (A7WNU1 entry or part of it): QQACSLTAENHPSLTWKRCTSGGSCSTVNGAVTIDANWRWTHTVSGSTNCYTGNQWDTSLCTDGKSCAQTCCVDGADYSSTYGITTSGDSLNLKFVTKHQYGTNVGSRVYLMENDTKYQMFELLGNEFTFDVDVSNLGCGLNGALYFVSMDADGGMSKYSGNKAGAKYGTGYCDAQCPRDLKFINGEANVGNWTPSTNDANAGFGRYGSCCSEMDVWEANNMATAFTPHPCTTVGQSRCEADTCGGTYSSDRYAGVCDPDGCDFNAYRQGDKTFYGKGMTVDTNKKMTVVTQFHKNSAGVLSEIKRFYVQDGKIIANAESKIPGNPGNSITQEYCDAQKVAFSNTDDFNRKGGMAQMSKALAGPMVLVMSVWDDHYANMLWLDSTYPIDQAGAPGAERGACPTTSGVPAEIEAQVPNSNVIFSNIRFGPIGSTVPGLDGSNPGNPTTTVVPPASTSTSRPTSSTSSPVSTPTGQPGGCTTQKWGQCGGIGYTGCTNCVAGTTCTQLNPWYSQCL
# protocolNotes: Cellobiose inhibition of MUL hydrolysis by CtCel7A
# Assay type: biochemical
# testSettings: MUL substrate (5 μM), 50°C
pKi: −log10 of the molar value.

>  <molecule>
O=C[C@H](O)[C@@H](O)[C@H](O[C@@H]1O[C@H](CO)[C@@H](O)[C@H](O)[C@H]1O)[C@H](O)CO [cellobiose, Cellobiose]

>  <pKi>
3.46

$$$$

###

# assaySystem: TaCel7A (Thermoascus aurantiacus, UniProt A7WNU2)
# Sequence (A7WNU2 entry or part of it): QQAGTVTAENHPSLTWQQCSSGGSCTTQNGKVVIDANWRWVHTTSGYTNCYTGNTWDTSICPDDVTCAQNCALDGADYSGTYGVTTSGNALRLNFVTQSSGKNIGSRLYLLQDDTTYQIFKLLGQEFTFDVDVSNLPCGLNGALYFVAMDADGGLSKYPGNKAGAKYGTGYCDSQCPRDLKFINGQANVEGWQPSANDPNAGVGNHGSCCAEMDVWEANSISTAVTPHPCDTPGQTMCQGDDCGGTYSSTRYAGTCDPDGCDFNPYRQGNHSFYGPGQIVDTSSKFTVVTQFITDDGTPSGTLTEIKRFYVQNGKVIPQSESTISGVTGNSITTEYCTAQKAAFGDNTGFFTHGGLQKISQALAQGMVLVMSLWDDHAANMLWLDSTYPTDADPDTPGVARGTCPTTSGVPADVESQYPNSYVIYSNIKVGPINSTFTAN
# protocolNotes: Cellobiose inhibition of MUL hydrolysis by TaCel7A
# Assay type: biochemical
# testSettings: MUL substrate (5 μM), 35°C
pKi: −log10 of the molar value.

>  <compound>
O=C[C@H](O)[C@@H](O)[C@H](O[C@@H]1O[C@H](CO)[C@@H](O)[C@H](O)[C@H]1O)[C@H](O)CO [cellobiose, Cellobiose]

>  <pKi>
3.75

$$$$
